Tested on: Plasmopara viticola
Assay: Plasmopara test (grapevine)/protective
Type: in vivo
Conditions: grapevine young plants, protective spray, active ingredient concentration 10 ppm, evaluation 6 days after inoculation; 0% = control, 100% = no infection
OBSERVABLE: Eff. % (%)

# COMPOUND, OBSERVABLE, VALUE REPORTED
rows = [
    ("N#CCOc1cccc(F)c1C1CC(c2csc(C3CCN(C(=O)Cn4nc(C(F)F)cc4C(F)F)CC3)n2)=NO1 (stereo not shown)", "Eff. %", 100),
    ("CN(C)C(=S)c1ccccc1C1CC(c2csc(C3CCN(C(=O)Cn4nc(C(F)F)cc4C(F)F)CC3)n2)=NO1 (stereo not shown)", "Eff. %", 96),
    ("CCON=Cc1ccccc1C1CC(c2csc(C3CCN(C(=O)Cn4nc(C(F)F)cc4C(F)F)CC3)n2)=NO1 (mixture of isomers)", "Eff. %", 99),
    ("CSCOc1ccccc1C1CC(c2csc(C3CCN(C(=O)Cn4nc(C(F)F)cc4C(F)F)CC3)n2)=NO1 (stereo not shown)", "Eff. %", 100),
    ("Cc1cc(C(F)(F)F)nn1CC(=O)N1CCC(c2nc(C3=NOC(c4ccccc4OCC#N)C3)cs2)CC1 (stereo not shown)", "Eff. %", 100),
    ("CCS(=O)(=O)Oc1ccccc1C1CC(c2csc(C3CCN(C(=O)Cn4nc(C(F)(F)F)cc4C)CC3)n2)=NO1 (stereo not shown)", "Eff. %", 100),
    ("N#CCOc1ccc(C2CC(c3csc(C4CCN(C(=O)Cn5nc(C(F)F)cc5C(F)F)CC4)n3)=NO2)cc1 (stereo not shown)", "Eff. %", 99),
]

###

Test system: Plasmopara viticola
Assay: Plasmopara test (grapevine)/protective
Format: in vivo
Details: grapevine young plants, protective spray, active ingredient concentration 10 ppm, evaluation 6 days after inoculation; 0% = control, 100% = no infection
Description: Plasmopara Test (Grapevine)/Protective To produce an appropriate active ingredient formulation, 1 part by weight of active ingredient is mixed with the specified amounts of solvent and emulsifier, and the concentrate is diluted with water to the desired concentration. To test for protective efficacy, young plants are sprayed with the active ingredient formulation at the stated application rate. […]
OBSERVABLE: Eff. % (%)

# MOLECULE, VALUE REPORTED
records = [
    ("Cc1cc(C(F)(F)F)nn1CC(=O)N1CCC(c2nc(C3=NOC(c4cccc(C=NO)c4)C3)cs2)CC1 (mixture of isomers) [I-10]", 92),
    ("CCS(=O)(=O)Oc1ccccc1C1CC(c2csc(C3CCN(C(=O)Cn4nc(C(F)F)cc4C(F)F)CC3)n2)=NO1 (stereo not shown) [I-65]", 100),
    ("Cc1cc(C(F)(F)F)nn1CC(=O)N1CCC(c2nc(C3=NOC(c4c(Cl)cccc4OS(C)(=O)=O)C3)cs2)CC1 (stereo not shown) [I-103]", 100),
    ("CC(=O)Nc1ccc(C2CC(c3csc(C4CCN(C(=O)Cn5nc(C(F)F)cc5C(F)F)CC4)n3)=NO2)cc1 (racemic) [I-25]", 97),
]

###

Test system: Phytophthora infestans
Type: in vivo
Conditions: tomato plants, protective spray, active ingredient concentration 100 ppm, evaluation 7 days after inoculation; 0% = control, 100% = no infection

# MOLECULE, Eff. %, %
rows = [
    ("Cc1cc(C(F)(F)F)nn1CC(=O)N1CCC(c2nc(C3=NOC(c4ccccc4C=NO)C3)cs2)CC1 (mixture of isomers) [I-38]", 100),
    ("CS(=O)(=O)Oc1ccccc1C1CC(c2csc(C3CCN(C(=O)Cn4nc(C(F)F)cc4C(F)F)CC3)n2)=NO1 (stereo not shown) [I-124]", 100),
    ("Cc1cc(C(F)F)nn1CC(=O)N1CCC(c2nc(C3=NOC(c4ccccc4OCC#N)C3)cs2)CC1 (stereo not shown) [I-76]", 100),
    ("O=C(Cn1nc(C(F)F)cc1C(F)F)N1CCC(c2nc(C3=NOC(c4cc(F)ccc4OS(=O)(=O)C4CC4)C3)cs2)CC1 (stereo not shown) [I-84]", 90),
]

###

In this section we review reported Eff. % values for a set of compounds.
Tested on: Phytophthora infestans
Type: in vivo
Settings: tomato plants, protective spray, active ingredient concentration 100 ppm, evaluation 7 days after inoculation; 0% = control, 100% = no infection
OBSERVABLE: Eff. % (%)

# COMPOUND, VALUE REPORTED
records = [
    ("N#CCOc1cccc(F)c1C1CC(c2csc(C3CCN(C(=O)Cn4nc(C(F)F)cc4C(F)F)CC3)n2)=NO1 (stereo not shown)", 85),
    ("C#CCOCc1ccccc1C1CC(c2csc(C3CCN(C(=O)Cn4nc(C(F)F)cc4C(F)F)CC3)n2)=NO1 (racemic) [I-53]", 94),
    ("O=C(Cn1nc(C(F)F)cc1C(F)F)N1CCC(c2nc(C3=NOC(c4ccccc4OS(=O)(=O)C(F)(F)F)C3)cs2)CC1 (stereo not shown)", 88),
    ("Cc1cc(C(F)(F)F)nn1CC(=O)N1CCC(c2nc(C3=NOC(c4c(Cl)cccc4OCC#N)C3)cs2)CC1 (stereo not shown)", 80),
]

###

Settings: pH 2.7

# COMPOUND, logp [a]
rows = [
    ("C#CCOCc1ccccc1C1CC(c2csc(C3CCN(C(=O)Cn4nc(C(F)F)cc4C(F)F)CC3)n2)=NO1 (stereo not shown) [I-138]", "3.74[a]"),
    ("Cc1cc(C(F)(F)F)nn1CC(=O)N1CCC(c2nc(C3=NOC(c4ccccc4OS(=O)(=O)C(F)(F)F)C3)cs2)CC1 (stereo not shown)", "3.99[a],"),
    ("CON=Cc1cccc(F)c1C1CC(c2csc(C3CCN(C(=O)Cn4nc(C(F)F)cc4C(F)F)CC3)n2)=NO1 (mixture of isomers)", "3.49[a],"),
    ("CON=Cc1cccc(F)c1C1CC(c2csc(C3CCN(C(=O)Cn4nc(C(F)(F)F)cc4C)CC3)n2)=NO1 (mixture of isomers)", "3.61[a],"),
]

###

Conditions: pH 2.7
OBSERVABLE: logp [a]

# COMPOUND, OBSERVABLE, VALUE REPORTED
measured = [
    ("O=CNc1ccccc1C1CC(c2csc(C3CCN(C(=O)Nc4cc(C(F)F)ccc4C(F)F)CC3)n2)=NO1 (stereo not shown)", "logp [a]", "2.63[a],"),
    ("COCCS(=O)(=O)Cc1ccccc1C1CC(c2csc(C3CCN(C(=O)Cn4nc(C(F)F)cc4C(F)F)CC3)n2)=NO1 (racemic)", "logp [a]", "2.74[a]"),
    ("CCS(=O)(=O)Oc1ccccc1C1CC(c2csc(C3CCN(C(=O)Cn4nc(C(F)(F)F)cc4C)CC3)n2)=NO1 (stereo not shown)", "logp [a]", "3.19[a],"),
    ("Cc1ccc(OS(C)(=O)=O)c(C2CC(c3csc(C4CCN(C(=O)Cn5nc(C(F)F)cc5C(F)F)CC4)n3)=NO2)c1 (stereo not shown)", "logp [a]", "3.22[a],"),
    ("O=C(Cn1nc(C(F)F)cc1C(F)F)N1CCC(c2nc(C3=NOC(c4ccccc4OCC#Cc4cccc5ccccc45)C3)cs2)CC1 (stereo not shown)", "logp [a]", "4.81[a],"),
    ("Cc1ccc(Cl)cc1NC(=O)N1CCC(c2nc(C3=NOC(c4c(Cl)cccc4OS(C)(=O)=O)C3)cs2)CC1 (racemic)", "logp [a]", "3.54[a],"),
    ("CON=C(C)c1cccc(C2CC(c3csc(C4CCN(C(=O)Cn5nc(C(F)(F)F)cc5C)CC4)n3)=NO2)c1 (mixture of isomers)", "logp [a]", "3.7[a]"),
]

###

In this section we review reported Eff. % values for a set of molecules.
Tested on: Phytophthora infestans
Format: in vivo
Settings: tomato plants, protective spray, active ingredient concentration 100 ppm, evaluation 7 days after inoculation; 0% = control, 100% = no infection
OBSERVABLE: Eff. % (%)

# MOLECULE, VALUE REPORTED
records = [
    ("Cc1ccc(S(=O)(=O)Oc2ccccc2C2(C)CC(c3csc(C4CCN(C(=O)Cn5nc(C(F)F)cc5C(F)F)CC4)n3)=NO2)cc1 (racemic)", 94),
    ("CON=C(C)c1ccccc1C1CC(c2csc(C3CCN(C(=O)Cn4nc(C(F)(F)F)cc4C)CC3)n2)=NO1 (mixture of isomers)", 100),
    ("CC(=NO)c1ccccc1C1CC(c2csc(C3CCN(C(=O)Cn4nc(C(F)(F)F)cc4C)CC3)n2)=NO1 (stereo not drawn)", 100),
    ("CON=C(C)c1cccc(C2CC(c3csc(C4CCN(C(=O)Cn5nc(C(F)(F)F)cc5C)CC4)n3)=NO2)c1 (mixture of isomers)", 100),
    ("Cc1ccc(C)c(NC(=O)N2CCC(c3nc(C4=NOC(c5c(Cl)cccc5OS(C)(=O)=O)C4)cs3)CC2)c1 (racemic)", 94),
    ("CON=C(C)c1ccccc1C1CC(c2csc(C3CCN(C(=O)Cn4nc(C(F)F)cc4C(F)F)CC3)n2)=NO1 (mixture of isomers)", 100),
]
